# measured-on: T1, human IL-36R extracellular domain expressed with a C-terminal mouse IgG2a Fc tag (hIL-36R-mFc) (human; mouse, UniProt Q9HB29 20-337)
# T1 construct: not shown: mouse IgG2a Fc, E98-K330
# T1 sequence (looked up): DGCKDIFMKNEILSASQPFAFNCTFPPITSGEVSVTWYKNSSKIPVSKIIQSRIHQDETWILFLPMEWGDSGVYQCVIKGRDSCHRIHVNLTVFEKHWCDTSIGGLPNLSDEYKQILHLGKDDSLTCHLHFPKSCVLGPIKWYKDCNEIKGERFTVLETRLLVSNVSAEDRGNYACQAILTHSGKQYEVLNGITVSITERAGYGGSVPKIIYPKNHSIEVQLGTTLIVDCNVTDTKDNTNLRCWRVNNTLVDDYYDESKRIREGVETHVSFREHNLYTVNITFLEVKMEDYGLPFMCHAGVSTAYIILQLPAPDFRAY
# assay-summary: SPR Biacore 4000, mAb captured on anti-hFc, 37C
measured-endpoint: 100 nM hIL-36R-mFc Bound (RU)
Reply numerically in RU, unit not repeated.

Guide cases for 100 nM hIL-36R-mFc Bound (RU), answers given:
[[record]]
binder = "H4H14709P (antibody, human IgG4 S228P, kappa, V domains shown, Fully human anti-IL-36R antibody) VH: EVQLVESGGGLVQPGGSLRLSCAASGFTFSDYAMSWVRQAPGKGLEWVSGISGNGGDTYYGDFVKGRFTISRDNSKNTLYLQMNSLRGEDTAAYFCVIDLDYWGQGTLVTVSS VL: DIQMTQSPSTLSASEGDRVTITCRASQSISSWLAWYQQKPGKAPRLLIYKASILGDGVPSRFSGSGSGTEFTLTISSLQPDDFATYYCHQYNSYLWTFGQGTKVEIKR"
test_value = 211

[[record]]
binder = "H4H14708P2 (antibody, human IgG4 S228P, kappa, V domains shown, Fully human anti-IL-36R antibody) VH: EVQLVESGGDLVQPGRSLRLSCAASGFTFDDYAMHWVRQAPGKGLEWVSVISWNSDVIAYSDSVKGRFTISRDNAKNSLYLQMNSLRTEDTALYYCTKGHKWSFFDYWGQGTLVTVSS VL: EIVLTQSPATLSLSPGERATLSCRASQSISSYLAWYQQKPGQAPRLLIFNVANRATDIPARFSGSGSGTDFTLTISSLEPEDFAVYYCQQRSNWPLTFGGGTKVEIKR"
test_value = 203

[[record]]
binder = "H4H14728P (antibody, human IgG4 S228P, kappa, V domains shown, Fully human anti-IL-36R antibody) VH: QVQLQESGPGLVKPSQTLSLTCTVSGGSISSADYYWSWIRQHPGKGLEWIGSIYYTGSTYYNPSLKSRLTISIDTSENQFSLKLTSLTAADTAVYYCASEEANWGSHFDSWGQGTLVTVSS VL: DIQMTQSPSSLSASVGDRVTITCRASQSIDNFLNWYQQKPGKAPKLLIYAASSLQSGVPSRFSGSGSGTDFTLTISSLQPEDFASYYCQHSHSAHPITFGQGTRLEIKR"
test_value = 11

[[record]]
binder = "H4H14758P (antibody, human IgG4 S228P, kappa, V domains shown, Fully human anti-IL-36R antibody) VH: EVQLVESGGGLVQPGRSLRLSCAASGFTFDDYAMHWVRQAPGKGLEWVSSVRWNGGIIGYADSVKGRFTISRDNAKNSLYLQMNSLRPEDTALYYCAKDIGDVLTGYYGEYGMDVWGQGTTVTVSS VL: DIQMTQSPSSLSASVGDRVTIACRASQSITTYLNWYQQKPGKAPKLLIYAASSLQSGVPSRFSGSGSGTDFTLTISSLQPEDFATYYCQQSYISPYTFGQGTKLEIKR"
test_value = 210

[[record]]
binder = "H4H14699P2 (antibody, human IgG4 S228P, kappa, V domains shown, Fully human anti-IL-36R antibody) VH: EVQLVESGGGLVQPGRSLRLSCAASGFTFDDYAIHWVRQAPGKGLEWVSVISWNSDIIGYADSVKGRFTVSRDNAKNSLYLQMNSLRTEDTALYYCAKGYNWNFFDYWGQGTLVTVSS VL: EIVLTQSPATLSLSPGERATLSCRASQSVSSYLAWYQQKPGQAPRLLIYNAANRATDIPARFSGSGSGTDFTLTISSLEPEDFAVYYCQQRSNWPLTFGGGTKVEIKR"
test_value = 186


Now for a further binder.
Task item: Consider the binder H4H14706P2 (antibody, human IgG4 S228P, kappa, V domains shown, Fully human anti-IL-36R antibody) VH: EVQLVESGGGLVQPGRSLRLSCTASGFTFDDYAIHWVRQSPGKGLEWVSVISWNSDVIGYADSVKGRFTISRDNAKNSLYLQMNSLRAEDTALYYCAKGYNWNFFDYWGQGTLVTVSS VL: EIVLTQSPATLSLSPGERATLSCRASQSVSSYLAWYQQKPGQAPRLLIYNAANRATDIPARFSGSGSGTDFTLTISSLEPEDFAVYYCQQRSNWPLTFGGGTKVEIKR . State its measured 100 nM hIL-36R-mFc Bound (RU).
Reply: 207
